Cited source: ChEMBL document CHEMBL3763042

molecular target: Cyclin-dependent kinase 2/cyclin E1 (Homo sapiens, UniProt P24941); assay: Inhibition of CDK2/Cyclin E (unknown origin) expressed in baculoviral infected insect Sf9 cells using histone H1 as substrate in presence of [gamma-33P]ATP; details: read-out: IC50
So basically, if IC50 comes in under 20 µM it's true (1), and if it's 20 µM or more it's false (0).

Is the reported IC50 for c1cnc2[nH]c(-c3cn(CCCc4c[nH]c5ncccc45)nn3)cc2c1 strictly below 20 µM? true (1)

Is the reported IC50 for c1cnc2[nH]c(-c3cnnn3CCc3c[nH]c4ncccc34)cc2c1 strictly below 20 µM? false (0)

Is the reported IC50 for O=C(Cn1nncc1-c1cc2cccnc2[nH]1)c1c[nH]c2ncccc12 strictly below 20 µM? true (1)

Is the reported IC50 for O=C(CCn1nncc1-c1c[nH]c2ncccc12)c1c[nH]c2ncccc12 strictly below 20 µM? true (1)

Is the reported IC50 for O=C(Cn1cc(-c2ccccc2)nn1)c1c[nH]c2ncccc12 strictly below 20 µM? false (0)

Is the reported IC50 for c1cnc2[nH]c(-c3cn(CCc4c[nH]c5ncccc45)nn3)cc2c1 strictly below 20 µM? false (0)

Is the reported IC50 for O=C(Cn1cc(-c2c[nH]c3ncccc23)nn1)c1c[nH]c2ncccc12 strictly below 20 µM? false (0)

Is the reported IC50 for O=S(=O)(c1ccccc1)n1cc(Cn2cc(-c3cc4cccnc4[nH]3)nn2)c2cccnc21 strictly below 20 µM? false (0)

Is the reported IC50 for O=S(=O)(c1ccccc1)n1cc(Cn2cc(-c3c[nH]c4ncccc34)nn2)c2cccnc21 strictly below 20 µM? false (0)

Is the reported IC50 for O=S(=O)(c1ccccc1)n1c(-c2cn(CCCc3c[nH]c4ncccc34)nn2)cc2cccnc21 strictly below 20 µM? true (1)
